Data credit: patent US12458640B2

# SHP2 (Homo sapiens (Human)): pIC50 values follow
# Sequence (Q06124 whole entry): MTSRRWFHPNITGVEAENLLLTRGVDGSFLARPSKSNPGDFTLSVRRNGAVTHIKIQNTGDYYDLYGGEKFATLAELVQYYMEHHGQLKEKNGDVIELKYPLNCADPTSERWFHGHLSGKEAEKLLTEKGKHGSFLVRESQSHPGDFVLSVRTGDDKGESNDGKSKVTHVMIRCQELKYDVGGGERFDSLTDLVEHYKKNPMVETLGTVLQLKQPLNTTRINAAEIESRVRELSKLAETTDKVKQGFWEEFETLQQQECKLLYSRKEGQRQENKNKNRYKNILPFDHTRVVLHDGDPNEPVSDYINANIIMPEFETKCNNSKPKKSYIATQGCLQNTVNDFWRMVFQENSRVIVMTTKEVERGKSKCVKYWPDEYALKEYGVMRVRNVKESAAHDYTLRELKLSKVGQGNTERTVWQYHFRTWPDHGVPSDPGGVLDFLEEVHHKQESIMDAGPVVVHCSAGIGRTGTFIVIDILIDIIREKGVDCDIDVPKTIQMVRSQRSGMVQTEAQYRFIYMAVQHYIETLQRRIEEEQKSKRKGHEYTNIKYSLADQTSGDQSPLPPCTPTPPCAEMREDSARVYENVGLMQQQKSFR
pIC50: −log10 of the molar value. Where a name gives a salt, the structure may show the parent alone.
parameter_measured: pIC50

* Cc1nc2c(-c3ccc4nn(C)c(Cl)c4c3Cl)n[nH]c2nc1N1CCC2(CC1)COC[C@H]2N | 8.28
* COc1cnc2ccc(-c3n[nH]c4nc(N5CCC6(CC5)CO[C@@H](C)[C@H]6N)c(C)nc34)c(Cl)c2n1 [Example 9, hydrochloride] | 7.74
* Cc1nc2c(-c3ccc4nn(C)cc4c3Cl)n[nH]c2nc1N1CCC2(CC1)CC(F)(F)C[C@H]2N [Example 2, hydrochloride] | 7.77
* CCn1cc2c(Cl)c(-c3n[nH]c4nc(N5CCC6(CC5)COC[C@H]6N)c(C)nc34)ccc2n1 | 8.12

----------
Target: SHP2 (Homo sapiens (Human))
Experiment: Shp2 Biochemical Assay (DiFMUP conversion)
Settings: 10 pM SHP2, activating peptide pIRS1, DiFMUP substrate; average where more than one data point
Structures can show the parent of a compound that is named as a salt.
Threshold check on IC50: strictly below 10 nM is Yes; on or above 10 nM is No.

- Cn1nc2ccc(-c3n[nH]c4nc(N5CCC6(CC5)C[C@H](F)C[C@H]6N)c(CO)nc34)c(Cl)c2c1Cl [Example 20]: Yes
- Cn1cc2c(Cl)c(-c3n[nH]c4nc(N5CCC6(CC5)CC(F)(F)C[C@H]6N)c(CO)nc34)ccc2n1 [Example 7]: No
- Cn1nc2ccc(-c3n[nH]c4nc(N5CCC6(CC5)CC(F)(F)C[C@H]6N)c(CO)nc34)c(Cl)c2c1Cl [Example 16]: Yes
- Cc1nc2c(-c3ccc4ncc(N(C)C)nc4c3Cl)n[nH]c2nc1N1CCC2(CC1)CO[C@@H](C)[C@H]2N [Example 10]: No
- C[C@@H]1OCC2(CCN(c3nc4[nH]nc(-c5cccc(Cl)c5F)c4nc3CO)CC2)[C@@H]1N [Example 23]: Yes
- Cc1nc2c(-c3ccc4nn(C)cc4c3Cl)n[nH]c2nc1N1CCC2(CC1)C[C@@H](C(F)(F)F)C[C@H]2N [Example 1, hydrochloride]: No
- C[C@@H]1OCC2(CCN(c3nc4[nH]nc(-c5ccc6ncc(N(C)C)nc6c5Cl)c4nc3CO)CC2)[C@@H]1N [Example 17]: No
